experiment: Hydrolysis kinetics in human whole blood; format: in vitro ADME; conditions: heparinized whole blood; human whole blood, 37 °C, 30 µM, pseudo-first order kinetic; read-out: half-life (t1/2) of hydrolysis
endpoint name: half-life at 30 µM (h)
I only need the number, in h, no unit after it.

Ask: // half-life at 30 µM lookup, key: COc1cc(/C=C/C(=O)OC/C=C(\C)CCC=C(C)C)ccc1O [Fer-Ger, Geranyl ferulate]
Reply: 3.23
